# tgt: Trypsin (Sus scrofa)
# Type: biochemical
Where no end group is shown, it is not given here. The star is where a group is joined. 5FAM = O=C1OC2(c3ccc(O)cc3Oc3cc(O)ccc32)c2ccc(C(=O)*)cc21
value-kind: cleavage by trypsin

1) [4-Mu]TRIDEANQRATK[DABCYL]-Hex ({4‑Mu}-TRIDEANQRATK; not fully specified (residue 12, C-terminus); also: DABCYL label and hexyl (-Hex) at C-terminal K, placement not clear) [#113] :: cleaved by trypsin
2) [5-Fam]TRIDEANQRATK[DABCYL]-Hex (5FAM-TRIDEANQRATK; not fully specified (residue 12, C-terminus); also: DABCYL label and hexyl (-Hex) at C-terminal K, placement not clear) [#112] :: cleaved by trypsin
3) [5-Fam]TRIDEANQRATK[DABCYL] (5FAM-TRIDEANQRATK; not fully specified (residue 12); also: DABCYL label at C-terminal K, side chain or terminus not clear) [#110] :: cleaved by trypsin
4) [4-Mu]TRIDEANQRATK[DABCYL] ({4‑Mu}-TRIDEANQRATK; not fully specified (residue 12); also: DABCYL label at C-terminal K, side chain or terminus not clear) [#111] :: cleaved by trypsin
